- target or system: T1, cynomolgus monkey CD3 on cynomolgus monkey PBMC or T cell line HSC-F (cynomolgus monkey, UniProt Q95LI5 22-198)
- T1 construct: whole, on cells; Native CD3 complex on monkey T cells; also called cynomolgus monkey CD3 (PBMC); cynomolgus monkey CD3 antigen
- T1 sequence (Q95LI5 22-198): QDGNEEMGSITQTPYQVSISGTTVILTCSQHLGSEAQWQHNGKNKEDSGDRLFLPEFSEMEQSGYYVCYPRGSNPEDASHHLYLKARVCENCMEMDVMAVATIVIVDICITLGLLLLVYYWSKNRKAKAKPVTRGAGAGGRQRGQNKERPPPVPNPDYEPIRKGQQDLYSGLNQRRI
- experimental protocol: flow cytometry on cynomolgus monkey PBMC

{"binder": "C3E-7087 (CDR modified humanized anti-CD3 scFv) (scFv, C3E-7078 with glutamine for aspartic acid at position 52 of the VL; the change is already in the entry) scFv: GEVQLVESGGGLVQPGGSLRLSCAASGVTFNYYGMSWIRQAPGKGLEWVASITRSGGRIYYPDSVKGRFTISRENTQKTLYLQMNSLRAEDTAVYYCTLDGRDGWVAYWGQGTLVTVSSGGGGSGGGGSGGGGSNFMLTQPHSVSESPGKTVTISCKRNTGNIGSNYVNWYQQHEGSSPTTIIYRQDKRPDGVSDRFSGSIDRSSKSASLTISNLKTEDEADYFCQSYSSGFIFGGGTKLTVLGAAAGAGGDYKDDDDKGAAAHHHHHH", "binding result": "binds"}
{"binder": "C3E-7091 (CDR modified humanized anti-CD3 scFv) (scFv, C3E-7079 with glycine for aspartic acid at position 52 of the VL; the change is already in the entry) scFv: GEVQLVESGGGLVQPGGSLRLSCAASGVTFNYYGMSWIRQAPGKGLEWVASITSSGGRIYYPDSVKGRFTISRENTQKTLYLQMNSLRAEDTAVYYCTLDGRDGWVAYWGQGTLVTVSSGGGGSGGGGSGGGGSNFMLTQPHSVSESPGKTVTISCKRNTGNIGSNYVNWYQQHEGSSPTTIIYRGDKRPDGVSDRFSGSIDRSSKSASLTISNLKTEDEADYFCQSYSSGFIFGGGTKLTVLGAAAGAGGDYKDDDDKGAAAHHHHHH", "binding result": "binds"}
